Cited source for all entries: PubChem BioAssay (NCI)

# Tested on: SK-MEL-28 melanoma
# protocol: NCI-60 one-dose screen, 48 h (100 = growth as untreated, 0 = no growth, -100 = all killed)
# condition-notes: 10 µM unless noted
About 83,000 compounds went through this panel and 20% of them were active in at least one assay; those are over-represented in the sample as a whole.
Collected growth values appear next to each entry.
recorded-metric: growth (%)

compound	measured-result
C=C1CC[C@@H]2[C@](C)(COC(C)=O)[C@H](OC(C)=O)CC[C@@]2(C)[C@@H]1CC(Nc1ccc(S(=O)(=O)Nc2cc(C)on2)cc1)C1=CCOC1=O (stereo not given in full)	38.1
Clc1ccc([C@@H]2C[C@@H]3Cc4cc(Br)c5ccccc5c4N2O3)c(Cl)c1	69.9
NC(=O)c1ccccc1NC(=O)c1ccccc1Cl	112
Cn1cc(-c2csc(-c3cn(C)c4ncccc34)n2)c2cc(Br)cnc21	92.1
CCCCCCCCCCCCNc1ncnc2[nH]ncc12	100
Cc1nn(-c2ccc(Cl)cc2)c2nc3c(nc12)C(=O)c1ccccc1-3	28.4
O=C(CN1CCCCC1)Sc1nnc2sc3ccccc3n12	120
CN1CCN(Cc2ccc(NC(=O)c3[nH]ncc3Nc3ccnc4ccnn34)cc2)CC1	65.6
O=C(Nc1ccc(OCc2nnc(-c3ccccc3)o2)c(F)c1)Nc1ccc(Cl)c(C(F)(F)F)c1	49.2
COc1ccc(/C=C2\COc3ccc(O)c(O)c3C2=O)cc1OC	57.2

---

# Test system: CAKI-1 renal
# protocol: NCI-60 one-dose screen, 48 h
# condition-notes: 10 µM unless noted
About 83,000 compounds went through this panel and 20% of them were active in at least one assay; those are over-represented in the sample as a whole. Active and inactive are the calls of the source. How the source made its calls: active means growth percent below 10; inactive means the rest.
Labels: true (1) for active, false (0) for inactive

compound	classification
CCOC(=O)c1ccccc1OC(=O)NNc1ccccc1	false (0)
CCOC(=O)C(C(C)=O)c1nc2sc3cc(Cl)ccc3n2c(=N)c1C#N (stereo unspecified)	false (0)
O=C(CN1CCCCC1)Sc1nnc2sc3ccccc3n12	false (0)
O=C1c2nsnc2C(=O)c2c(F)c(F)c(F)c(F)c21	true (1)
Cc1c(C(N)=O)sc2c1c(=O)n(Cc1ccccc1)c1nnc(SCC(=O)Nc3ccc(Cl)cc3)n21	false (0)
COc1ccc2c(c1)C(=O)/C(=C/c1cccc(OCC(=O)c3ccccc3)c1)CC2	false (0)
O=C(C=C=Nc1ccccc1)C(=O)N=C=Cc1ccccc1	false (0)
COc1ccc(/C=C(\C#N)c2ccccc2)cc1	false (0)
COc1ccc(-c2csc(NC(=O)c3cc(OC)c(OC)c(OC)c3)n2)cc1	false (0)
O=C1Nc2ccc(F)cc2/C1=C/c1nc(-c2ccc(F)cc2)n2ccccc12	false (0)
Oc1[nH]c2ccccc2c1/C=c1/ccc2c(c1)N=C(c1cc(F)cc(F)c1)N=2	false (0)
COc1ccc(-c2oc3cc(O)c(OC)c(O)c3c(=O)c2OC)cc1O	false (0)
Clc1ccccc1[C@@H]1C[C@@H]2Cc3cc(Br)c4ccccc4c3N1O2	false (0)
Cc1c(C)c(N2C(=O)C=CC2=O)c(C)c(C)c1N1C(=O)C=CC1=O	false (0)
COc1ccc(-n2nnc(C(=O)O)c2-c2cc(OC)c(OC)c(OC)c2)cc1	false (0)
COc1c(O)cc2oc3cc(O)c(CC=C(C)C)c(O)c3c(=O)c2c1C/C=C(\C)CCC=C(C)C	false (0)
COC1=CC(c2ccc[nH]2)=N/C1=C\c1[nH]c(C)c(C(=O)CCC(=O)Oc2ccc3c(c2)CCC2C3CC[C@]3(C)C(=O)CC[C@@H]23)c1C (stereo partly specified)	false (0)
CCOc1ccccc1C(=O)OCC(=O)Nc1cccc(S(=O)(=O)N(C)C)c1	false (0)
CCOC(=O)C1=C(C)N2C(=NC3=C(CCC/C3=C\c3ccc(Cl)cc3)C2c2ccc(Cl)cc2)S1 (stereo unspecified)	false (0)
COc1ccc(/C=N/NC(=O)c2ccc(S(C)(=O)=O)cc2)cc1OC	false (0)
OCc1nnn(-c2ccccc2)c1CO	false (0)
COc1ccc(C(=O)C(C)Br)cc1OC (stereo unspecified)	false (0)
O=C(/C(=N/O)S(=O)(=O)c1ccccc1)c1cccs1	false (0)
Cc1ccc2c(c1)O/C(=C\c1ccc([N+](=O)[O-])o1)C2=O	false (0)
O=[N+]([O-])c1cnc(Sc2ccncn2)c([N+](=O)[O-])c1	false (0)
O=C(/C=C/c1cc2ccccc2[nH]c1=O)c1ccc(O)cc1	false (0)
CC(c1ccccn1)C(C)(O)C(C)c1ccccn1 (stereo unspecified)	false (0)
COc1ncc(-c2ccc3nccc(C#CCN4CCN(S(C)(=O)=O)CC4)c3c2)cc1NS(=O)(=O)c1ccc(F)cc1F	true (1)
Cc1c(C(N)=O)sc2ncn(Cc3ccccc3)c(=O)c12	true (1)
NNC(=O)C1CC2c3ccccc3C1c1ccccc12 (stereo unspecified)	false (0)
CCOc1cc(C(C)(C)C)ccc1C1=N[C@H](c2ccc(Cl)cc2)[C@H](c2ccc(Cl)cc2)N1C(=O)N1CCN(CC#Cc2cccc3c2CN([C@@H]2CCC(=O)NC2=O)C3=O)CC1	true (1)
CCC(O)C(C)(C)C (stereo unspecified)	false (0)
c1ccc2cc(C[n+]3ccn(CCCCCCCn4cc[n+](Cc5ccc6ccccc6c5)c4)c3)ccc2c1	false (0)
O=C(CSCC(=O)N/N=C/c1ccccc1O)N/N=C\c1ccccc1O	false (0)
COC(=O)[C@]1(CCSC)N[C@H](c2cn(-c3ccccc3)nc2C)[C@@H]2C(=O)N(c3ccc(C)cc3)C(=O)[C@@H]21	false (0)
CN(C)c1nc(N)nc(Cn2c(-c3nonc3N)nc3ccccc32)n1	false (0)
CCSc1nnc2n(Cc3ccccc3)c(=O)c3c(C)c(C(N)=O)sc3n12	false (0)
COc1cc(C2C=C(c3ccc(C)cc3)Nc3nc(SC)[nH]c(=O)c32)ccc1Oc1ccnc2cc(Cl)ccc12 (stereo unspecified)	false (0)
O=C1Nc2ccccc2C12Nc1cc(Cl)ccc1S2 (stereo unspecified)	false (0)
Cn1cc(-c2csc(-c3cn(C)c4ncccc34)n2)c2cc(Br)cnc21	false (0)
C[n+]1ccc(Nc2ccc(NC(=O)c3ccc(Nc4cc[n+](C)c5ccc(N)cc45)cc3)cc2)cc1	false (0)

---

# Test system: MCF7 breast
# protocol: NCI-60 one-dose screen, 48 h
# condition-notes: 10 µM unless noted
# Experimental: Growth inhibition of the MCF7 human tumor cell line is measured as a screen for anti-cancer activity. Cells are grown in 96 well plates and exposed to the test compound for 48 hours. Compounds are tested at a single concentration, which is 10^-5 M for most compounds. The reported endpoint is percent growth (GI% or GIPRCNT), where numbers from 0 - 100% represent growth inhibition, and numbers from -100% - 0 represent cell death. For example, a value of 40 represents 60% growth inhibition. […]
Compounds without any hit were thinned out: in the full panel of roughly 83,000, 20% have a hit. Activity calls are given as the source filed them. Rule for the calls: active = growth percent below 10; inactive = the rest.
Labels: active, inactive

compound	classification
O=C1C[C@@H]2/C(=C(O)\C=C\c3ccccc3)C(=O)C=C[C@@H]2O1	active
COC(=O)CCC1=C(C)C(C)=N/C1=C\c1[nH]c(-c2ccc[nH]2)cc1OC	active
CCCCCCC/C(=N\N=C(N)N)c1ccc(O)cc1	active
Cc1ccc(C(O)C2=CC(=O)c3ccccc3C2=O)cc1 (stereo unspecified)	inactive
C/C(=N\N1CC(=O)NC1=O)c1ccc([N+](=O)[O-])o1	inactive
Clc1ccc2nc(Cl)c3ccccc3c2c1	inactive
Cn1cc(-c2csc(-c3cn(C)c4ncccc34)n2)c2cc(F)cnc21	inactive
COc1cc(OC)c2sc(-c3ccc(-n4cncc4-c4ccc(N)cc4)cc3)nc2c1	inactive
CCCCSc1cc(C)nc(N)n1	inactive
CCN(CC)c1ccc(CN(CC(=O)c2ccc(Cl)c(Cl)c2)Cc2ccccc2)cc1	inactive
CC(=O)c1ccc2c3c(n(C)c2c1)CCCC3	inactive
COC1=CC(c2ccc[nH]2)=N/C1=C\c1[nH]c(C)c(C(=O)CCC(=O)Oc2ccc3c(c2)CCC2C3CC[C@]3(C)C(=O)CC[C@@H]23)c1C (stereo partly specified)	inactive
CCOC(=O)C1C(=O)OC2CCCCC21 (stereo unspecified)	inactive
Cc1c(C(N)=O)sc2nc(SCC(=O)Nc3ccc(Cl)cc3)n(-c3ccccc3)c(=O)c12	inactive
Cc1ccc(NC(=O)COC(=O)c2ccc(S(=O)(=O)N3CCCCCC3)cc2)cc1	inactive
CCS(=O)(=O)OCCCl	inactive
COc1ccc(-c2cncn2-c2ccc(-c3nc4cc(OC)c(OC)c(OC)c4s3)cc2)cc1N	inactive
C[C@]12C[C@H](O)[C@H]3[C@@H](CCC4=CC(=O)CC[C@@]43C)[C@@H]1CC[C@@H]2C(=O)CO	inactive
Cc1cc(O)c2c(c1)C[C@H]1[C@@H]3CC[C@H]4CC(=O)CC[C@]4(C)[C@H]3CC(=O)[C@]21C	inactive
CC(C)[C@]12O[C@H]1[C@@H]1O[C@]13[C@]1(O[C@H]1C[C@H]1C4=C(CC[C@@]13C)C(=O)OC4)[C@@H]2OC(=O)CN(C)C	inactive
COc1cc(OC)c2cc(C(=O)O)c(=O)oc2c1	inactive
